Recorded IC50, one value per entry.
- system_name: Cholecystokinin receptor (Rattus norvegicus, UniProt P30551+P30553)
- assay_explanation: Ability of compound to Inhibit the binding of [125I]BH-CCK-8 to Cholecystokinin receptor in isolated rat pancreatic acini
- Format: protein assay
quantity_kind: IC50 (µM)

{"compound": "CCCC[C@H](NC(=O)[C@H](Cc1ccc(OS(=O)(=O)O)cc1)NC(=O)OC(C)(C)C)C(=O)NCC(=O)N[C@H](Cc1c[nH]c2ccccc12)C(=O)N[C@@H](CCCC)C(=O)N[C@@H](CC(=O)O)C(=O)N[C@@H](Cc1ccccc1)NC=O", "quantity_kind": "IC50", "unit_symbol": "µM", "reported_measurement": 4}
{"compound": "CCCC[C@@H](NC(=O)CC(=O)N[C@H](Cc1c[nH]c2ccccc12)C(=O)N[C@@H](CCCC)C(=O)N[C@H](CC(=O)O)C(=O)N[C@@H](Cc1ccccc1)C(N)=O)NC(=O)[C@H](Cc1ccc(OS(=O)(=O)O)cc1)NC(=O)C(CC(=O)O)NC(=O)OC(C)(C)C (some centres not stated)", "quantity_kind": "IC50", "unit_symbol": "µM", "reported_measurement": 0.5}

====

# IC50 listing for each entry below
- system_name: Cholecystokinin receptor (Rattus norvegicus, UniProt P30551+P30553)
- assay_explanation: Ability of compound to Inhibit the binding of [125I]BH-CCK-8 to Cholecystokinin receptor in isolated rat pancreatic acini
- Format: protein assay

{"molecule": "CCCC[C@H](NC(=O)[C@H](Cc1ccc(OS(=O)(=O)O)cc1)NC(=O)OC(C)(C)C)C(=O)NCNC(=O)[C@H](Cc1c[nH]c2ccccc12)NC(=O)[C@H](CCCC)NC(=O)[C@H](CC(=O)O)NC(=O)[C@@H](Cc1ccccc1)C(N)=O", "system_name": "Cholecystokinin receptor (Rattus norvegicus, UniProt P30551+P30553)", "IC50 / µM": 0.02}
{"molecule": "CCCC[C@H](NC(=O)[C@H](Cc1ccc(OS(=O)(=O)O)cc1)NC(=O)C(CC(=O)O)NC(=O)OC(C)(C)C)C(=O)NCC(=O)N[C@H](Cc1c[nH]c2ccccc12)C(=O)N[C@@H](CCCC)C(=O)N[C@H](CC(=O)O)NC(=O)CCc1ccccc1 (stereo not given in full)", "system_name": "Cholecystokinin receptor (Rattus norvegicus, UniProt P30551+P30553)", "IC50 / µM": 0.1}
{"molecule": "CCCC[C@H](NC(=O)[C@H](Cc1ccc(OS(=O)(=O)O)cc1)NC(=O)OC(C)(C)C)C(=O)NCNC(=O)[C@H](Cc1c[nH]c2ccccc12)NC(=O)[C@H](CCCC)NC(=O)[C@H](CC(=O)O)NC(=O)CCc1ccccc1", "system_name": "Cholecystokinin receptor (Rattus norvegicus, UniProt P30551+P30553)", "IC50 / µM": 0.04}
{"molecule": "CCCC[C@H](NC(=O)[C@H](Cc1ccc(OS(=O)(=O)O)cc1)NC(=O)C(CC(=O)O)NC(=O)OC(C)(C)C)C(=O)NCC(=O)N[C@H](Cc1c[nH]c2ccccc12)C(=O)N[C@@H](CCCC)C(=O)N[C@H](CC(=O)O)NC(=O)[C@@H](Cc1ccccc1)C(N)=O (stereo not given in full)", "system_name": "Cholecystokinin receptor (Rattus norvegicus, UniProt P30551+P30553)", "IC50 / µM": 0.1}
{"molecule": "CCCC[C@H](NC(=O)[C@H](Cc1ccc(OS(=O)(=O)O)cc1)NC(=O)OC(C)(C)C)C(=O)NCC(=O)N[C@@H](Cc1c[nH]c2ccccc12)C(=O)N[C@@H](CCCC)C(=O)N[C@@H](CC(=O)O)C(=O)N[C@@H](Cc1ccccc1)NC=O", "system_name": "Cholecystokinin receptor (Rattus norvegicus, UniProt P30551+P30553)", "IC50 / µM": 0.5}

====

- assay_explanation: Ability of compound to Inhibit the binding of [125I]BH-CCK-8 to Cholecystokinin receptor in isolated guinea pig brain membranes
Please assign Criterion not met whenever IC50 is at or above 30 nM, and Criterion met whenever it is below.

{"compound": "CCCC[C@H](NC(=O)[C@H](Cc1ccc(OS(=O)(=O)O)cc1)NC(=O)OC(C)(C)C)C(=O)NCC(=O)N[C@H](Cc1c[nH]c2ccccc12)C(=O)N[C@@H](CCCC)C(=O)N[C@@H](CC(=O)O)C(=O)N[C@@H](Cc1ccccc1)NC=O", "category": "Criterion not met"}
{"compound": "CCCC[C@@H](NC(=O)CC(=O)N[C@H](Cc1c[nH]c2ccccc12)C(=O)N[C@@H](CCCC)C(=O)N[C@H](CC(=O)O)C(=O)N[C@@H](Cc1ccccc1)C(N)=O)NC(=O)[C@H](Cc1ccc(OS(=O)(=O)O)cc1)NC(=O)C(CC(=O)O)NC(=O)OC(C)(C)C (some centres not stated)", "category": "Criterion met"}
{"compound": "CCCC[C@H](NC(=O)[C@H](Cc1ccc(OS(=O)(=O)O)cc1)NC(=O)C(CC(=O)O)NC(=O)OC(C)(C)C)C(=O)NCC(=O)N[C@H](Cc1c[nH]c2ccccc12)C(=O)N[C@@H](CCCC)C(=O)N[C@H](CC(=O)O)NC(=O)CCc1ccccc1 (some centres not stated)", "category": "Criterion not met"}
{"compound": "CCCC[C@H](NC(=O)[C@H](Cc1ccc(OS(=O)(=O)O)cc1)NC(=O)OC(C)(C)C)C(=O)NCNC(=O)[C@H](Cc1c[nH]c2ccccc12)NC(=O)[C@H](CCCC)NC(=O)[C@H](CC(=O)O)NC(=O)CCc1ccccc1", "category": "Criterion not met"}
{"compound": "CCCC[C@H](NC(=O)[C@H](Cc1ccc(OS(=O)(=O)O)cc1)NC(=O)C(CC(=O)O)NC(=O)OC(C)(C)C)C(=O)NCC(=O)N[C@H](Cc1c[nH]c2ccccc12)C(=O)N[C@@H](CCCC)C(=O)N[C@H](CC(=O)O)NC(=O)[C@@H](Cc1ccccc1)C(N)=O (some centres not stated)", "category": "Criterion met"}
{"compound": "CCCC[C@H](NC(=O)[C@H](Cc1ccc(OS(=O)(=O)O)cc1)NC(=O)OC(C)(C)C)C(=O)NCNC(=O)[C@H](Cc1c[nH]c2ccccc12)NC(=O)[C@H](CCCC)NC(=O)[C@H](CC(=O)O)NC(=O)[C@@H](Cc1ccccc1)C(N)=O", "category": "Criterion not met"}
